# systemName: human histamine H1 receptor (Homo sapiens, UniProt P35367)
# Sequence (P35367 whole entry): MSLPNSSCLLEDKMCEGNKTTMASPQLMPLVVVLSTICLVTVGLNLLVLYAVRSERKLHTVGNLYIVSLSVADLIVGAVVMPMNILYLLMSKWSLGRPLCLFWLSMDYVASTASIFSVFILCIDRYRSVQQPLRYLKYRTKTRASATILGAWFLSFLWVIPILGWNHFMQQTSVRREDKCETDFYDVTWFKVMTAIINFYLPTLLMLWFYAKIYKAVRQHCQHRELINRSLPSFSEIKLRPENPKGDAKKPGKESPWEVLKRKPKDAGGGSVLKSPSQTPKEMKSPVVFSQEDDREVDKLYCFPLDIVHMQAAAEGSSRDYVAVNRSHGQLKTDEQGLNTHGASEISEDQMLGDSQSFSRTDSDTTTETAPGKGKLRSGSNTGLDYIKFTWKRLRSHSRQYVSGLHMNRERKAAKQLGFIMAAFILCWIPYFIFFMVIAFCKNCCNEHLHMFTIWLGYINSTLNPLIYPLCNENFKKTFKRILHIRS
# experimentalProtocol: In vitro human histamine H1 receptor binding experiment ([3H]pyrilamine)
# cond: HEK293A cells stably expressing human histamine H1 receptor, [3H]pyrilamine 3 nmol/L, room temperature 60 minutes
Counter-ions that a name gives are not always drawn.
Property: pIC50; scope: individual molecules
# log scale: pIC50 equals minus log10 of the concentration in mol/L

Worked set:
Exam item: # get_value(readout= pIC50, system= human histamine H1 receptor (Homo sapiens, UniProt P35367)) for COC(=O)Cc1ccc2c(c1)C(=C1CCN(C)CC1)c1ccsc1CO2 [Compound 116, hydrochloride]
Marked response: 8.40

Exam item: Param item: CCOC(=O)CCN1CCC(=C2c3cc(CC(=O)OC)ccc3OCc3ccsc32)CC1.Cl [Compound 173, hydrochloride]
Marked response: 8.90

Exam item: Param item: CCOC(=O)C=Cc1cc2c(s1)CCc1ccccc1C2=C1CCNCC1.Cl [Compound 145, hydrochloride]
Marked response: 7.16

Exam item: Param item: COC(=O)Cc1ccc2c(c1)C(=C1CCN(C(C)C)CC1)c1sccc1CO2.Cl [Compound 131, hydrochloride]
Marked response: 7.49

Exam item: Param item: CC(C(=O)O)c1ccc2c(c1)C(=C1CCN(C)CC1)c1sccc1CO2 (centres unmarked) [Compound 57, hydrochloride]
Marked response: 7.15

Exam item: Param item: CCOC(=O)c1cc2c(s1)C(=O)Cc1ccccc1C2=C1CCN(C)CC1 [Compound 50]
Marked response: 7.77

Exam item: Param item: CCOC(=O)c1ccc2c(c1)C(=C1CCN(CC)CC1)c1sccc1CC2 [Compound 160]
Marked response: 8.25

Now look at this entry.
Exam item: # get_value(readout= pIC50, system= human histamine H1 receptor (Homo sapiens, UniProt P35367)) for CC(=O)NCc1cc2c(s1)CCc1ccccc1C2=C1CCN(C)CC1 [Compound 20, hydrochloride]
Marked response: 7.82

###

# systemName: cerebral H1 receptor (Mus musculus, UniProt P70174)
# Construct: the entire brain, except for cerebellum and medulla oblongatae, was rapidly excised; from tissue; host or cells: brain homogenate (without cerebellum and medulla oblongata) of orally dosed ICR male mice
# Sequence (P70174 whole entry): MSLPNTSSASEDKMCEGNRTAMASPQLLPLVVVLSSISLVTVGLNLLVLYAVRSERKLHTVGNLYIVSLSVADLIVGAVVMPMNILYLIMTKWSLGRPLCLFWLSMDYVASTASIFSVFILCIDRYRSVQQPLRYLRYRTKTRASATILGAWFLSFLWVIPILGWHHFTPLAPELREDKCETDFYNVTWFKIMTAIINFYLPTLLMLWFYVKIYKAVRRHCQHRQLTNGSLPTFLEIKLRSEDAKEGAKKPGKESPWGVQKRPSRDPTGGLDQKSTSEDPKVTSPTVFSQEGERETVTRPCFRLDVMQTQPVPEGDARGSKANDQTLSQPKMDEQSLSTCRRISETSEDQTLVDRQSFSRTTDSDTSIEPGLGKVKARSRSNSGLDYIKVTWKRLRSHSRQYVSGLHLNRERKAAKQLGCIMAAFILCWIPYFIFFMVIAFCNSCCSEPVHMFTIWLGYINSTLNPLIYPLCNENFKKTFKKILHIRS
# experimentalProtocol: Murine cerebral H1 receptor occupying content (ex vivo)
# Type: in vivo
# cond: ID50 of cerebral receptor binding test (Table 20) divided by ED50 of vascular hyperpermeability test (Table 19)
Decide using ID50 (mg/kg)/ ED50 (mg/kg) alone. Strictly below 200: true. Equal to or above 200: false.

Below are worked cases with known answers.
Exam item: # strict comparison: is reported ID50 (mg/kg)/ ED50 (mg/kg) < 200? input = CCN1CCC(=C2c3cc(CC(=O)O)ccc3OCc3ccsc32)CC1
Marked response: true

Exam item: Param item: CN1CCC(=C2c3cc(CC(=O)O)ccc3OCc3sccc32)CC1
Marked response: true

Exam item: Param item: O=C(O)CCc1cc2c(s1)C=Cc1ccccc1C2=C1CCNCC1
Marked response: false

Next:
Exam item: # strict comparison: is reported ID50 (mg/kg)/ ED50 (mg/kg) < 200? input = COC(=O)Cc1ccc2c(c1)C(=C1CCNCC1)c1sccc1CO2.Cl
Marked response: false

Exam item: Param item: CCN1CCC(=C2c3ccccc3CCc3sc(C(=O)O)cc32)CC1.Cl
Marked response: true

Exam item: Param item: O=C(O)Cc1ccc2c(c1)C(=C1CCN(CCO)CC1)c1sccc1CO2
Marked response: true

Exam item: Param item: CN1CCC(=C2c3cc(C(C)(C)C(=O)O)ccc3OCc3ccsc32)CC1
Marked response: true

Exam item: Param item: CCCN1CCC(=C2c3cc(CC(=O)O)ccc3OCc3ccsc32)CC1
Marked response: true

Exam item: Param item: COC(=O)Cc1ccc2c(c1)C(=C1CCN(CCC(C)=O)CC1)c1sccc1CO2.Cl
Marked response: true

Exam item: Param item: COC(=O)CSc1ccc2c(c1)C(=C1CCNCC1)c1sccc1CO2.Cl
Marked response: false

Exam item: Param item: COC(=O)Cc1ccc2c(c1)C(=C1CCN(CCCO)CC1)c1sccc1CO2.Cl
Marked response: true

Exam item: Param item: COC(=O)Cc1ccc2c(c1)C(=C1CCN(CC(C)=O)CC1)c1sccc1CO2.Cl
Marked response: true

Exam item: Param item: CC(=O)CCCN1CCC(=C2c3cc(CCCC(=O)O)ccc3OCc3ccsc32)CC1
Marked response: true

Exam item: Param item: COC(=O)CSc1ccc2c(c1)C(=C1CCN(C)CC1)c1sccc1CO2.Cl
Marked response: false

Exam item: Param item: CC(C)N1CCC(=C2c3cc(CC(=O)O)ccc3OCc3ccsc32)CC1
Marked response: false

Exam item: Param item: COC(=O)Cc1ccc2c(c1)C(=C1CCN(CCCC(C)=O)CC1)c1sccc1CO2.Cl
Marked response: true

Exam item: Param item: CCOC(=O)Cc1ccc2c(c1)C(=C1CCNCC1)c1sccc1CO2.Cl
Marked response: false

Exam item: Param item: COC(=O)Cc1ccc2c(c1)C(=C1CCN(CCSC)CC1)c1sccc1CO2.Cl
Marked response: true

Exam item: Param item: CN1CCC(=C2c3ccccc3CC(=O)c3sc(C=CC(=O)O)cc32)CC1
Marked response: true

Exam item: Param item: COC(=O)Cc1ccc2c(c1)C(=C1CCN(CCCSC)CC1)c1sccc1CO2.Cl
Marked response: true

Exam item: Param item: CCN1CCC(=C2c3cc(CC(=O)OC)ccc3OCc3ccsc32)CC1.Cl
Marked response: true

Exam item: Param item: COC(=O)COc1ccc2c(c1)C(=C1CCN(C)CC1)c1sccc1CO2.Cl
Marked response: false

Exam item: Param item: CN1CCC(=C2c3ccccc3CCc3sc(C(C)(C)C(=O)O)cc32)CC1
Marked response: true

Exam item: Param item: CN1CCC(=C2c3ccccc3CCc3cc(C=CC(=O)O)sc32)CC1
Marked response: true

Exam item: Param item: COC(=O)Cc1ccc2c(c1)C(=C1CCN(CCNS(C)(=O)=O)CC1)c1sccc1CO2.Cl
Marked response: false

###

Counter-ions that a name gives are not always drawn.
Parameter pIC50, tested on human histamine H1 receptor (Homo sapiens, UniProt P35367), listed per item.
# log scale: pIC50 equals minus log10 of the concentration in mol/L

Worked set:
Exam item: Entry CCCN1CCC(=C2c3cc(CC(=O)OC)ccc3OCc3ccsc32)CC1.Cl [Compound 129, hydrochloride] has what pIC50?
Marked response: 7.64

Exam item: Param item: CCOC(=O)C(C)(C)c1cc2c(s1)CCc1ccccc1C2=C1CCN(CC)CC1 [Compound 154, hydrochloride]
Marked response: 7.59

Next:
Exam item: Entry CC(C(=O)NCCO)c1ccc2c(c1)C(=C1CCN(C)CC1)c1sccc1CO2 (stereo not shown) [Compound 64] has what pIC50?
Marked response: 7.31

Exam item: Param item: CCN1CCC(=C2c3cc(CC(=O)OC)ccc3OCc3ccsc32)CC1.Cl [Compound 127, hydrochloride]
Marked response: 8.09

Exam item: Param item: CCOC(=O)c1ccc2c(c1)C(=C1CCN(C)CC1)c1ccsc1CC2 [Compound 95]
Marked response: 7.83

Exam item: Param item: CCOC(=O)Cc1ccc2c(c1)C(=C1CCN(C)CC1)c1ccsc1CC2 [Compound 106, hydrochloride]
Marked response: 8.15

Exam item: Param item: CCOC(=O)C=Cc1cc2c(s1)CCc1ccccc1C2=C1CCN(CC)CC1 [Compound 158]
Marked response: 7.33

Exam item: Param item: COC(=O)Cc1ccc2c(c1)C(=C1CCN(CCO)CC1)c1sccc1CO2.Cl [Compound 118, hydrochloride]
Marked response: 7.63

Exam item: Param item: CCCN1CCC(=C2c3ccccc3CCc3sc(C(=O)OCC)cc32)CC1 [Compound 133, hydrochloride]
Marked response: 7.77

Exam item: Param item: CCOC(=O)c1cc2c(s1)C(=C1CCN(C)CC1)c1ccccc1OC2 [Compound 44, hydrochloride]
Marked response: 7.72

###

Parameter IC50, tested on human histamine H1 receptor (Homo sapiens, UniProt P35367), listed per item.
Structures can show the parent of a compound that is named as a salt.

Worked set:
Exam item: Entry COC(=O)Cc1ccc2c(c1)C(=C1CCN(CCCNS(C)(=O)=O)CC1)c1sccc1CO2 [Compound 193, hydrochloride] has what IC50?
Marked response: 13.1 nM

Exam item: Param item: CN1CCC(=C2c3ccccc3CCc3cc(NC(=O)OC(C)(C)C)sc32)CC1 [Compound 10]
Marked response: 88.5 nM

Exam item: Param item: CC(CO)NC(=O)c1cc2c(s1)CCc1ccccc1C2=C1CCN(C)CC1 (stereo not shown) [Compound 71]
Marked response: 62 nM

Now look at this entry.
Exam item: Entry CN1CCC(=C2c3ccccc3CCc3cc(C=CC(=O)O)sc32)CC1 [Compound 15] has what IC50?
Marked response: 26.8 nM

###

# systemName: cerebral H1 receptor (Mus musculus, UniProt P70174)
# Construct: the entire brain, except for cerebellum and medulla oblongatae, was rapidly excised; from tissue; host or cells: brain homogenate (without cerebellum and medulla oblongata) of orally dosed ICR male mice
# experimentalProtocol: Murine cerebral H1 receptor occupying content (ex vivo)
# Type: in vivo
# cond: ID50 of cerebral receptor binding test (Table 20) divided by ED50 of vascular hyperpermeability test (Table 19)
Property: ID50 (mg/kg)/ ED50 (mg/kg); scope: individual molecules

Exam item: Entry CCN1CCC(=C2c3ccccc3CCc3sc(C(C)(C)C(=O)O)cc32)CC1 has what ID50 (mg/kg)/ ED50 (mg/kg)?
Marked response: 199.4

Exam item: Param item: COC(=O)Cc1ccc2c(c1)C(=C1CCN(C(C)C)CC1)c1sccc1CO2.Cl
Marked response: 92.0

All figures here come from patent US8377967B2.
